# System: Oculimacula yallundae
# methodNotes: Fungicidal activity against W-type Oculimacula yallundae assessed as inhibition of mycelial growth at 20 degC for 14 days
# Assay type: functional, organism-based
# recordedConditions: Oculimacula yallundae, 336 h
measurementType: MIC

- molecule: "COC(=O)NC(=S)Nc1ccccc1NC(=S)NC(=O)OC [THIOPHANATE METHYL]"
  measurementTarget: "Oculimacula yallundae"
  MIC: "25 µg/mL"
- molecule: "CNC(=O)/C(=N/OC)c1ccccc1Oc1ncc(Cl)cc1C(F)(F)F"
  measurementTarget: "Oculimacula yallundae"
  MIC: "< 125 µg/mL"

--- query ---
Data request: Form field: reported MIC of CO/C=C(/C(=O)OC)c1ccccc1Oc1cc(Oc2ccccc2C#N)ncn1 [AZOXYSTROBIN]
Data returned: < 125 µg/mL
